Molecular target: Acetylcholinesterase (Mus musculus)
Sequence (P21836 whole entry): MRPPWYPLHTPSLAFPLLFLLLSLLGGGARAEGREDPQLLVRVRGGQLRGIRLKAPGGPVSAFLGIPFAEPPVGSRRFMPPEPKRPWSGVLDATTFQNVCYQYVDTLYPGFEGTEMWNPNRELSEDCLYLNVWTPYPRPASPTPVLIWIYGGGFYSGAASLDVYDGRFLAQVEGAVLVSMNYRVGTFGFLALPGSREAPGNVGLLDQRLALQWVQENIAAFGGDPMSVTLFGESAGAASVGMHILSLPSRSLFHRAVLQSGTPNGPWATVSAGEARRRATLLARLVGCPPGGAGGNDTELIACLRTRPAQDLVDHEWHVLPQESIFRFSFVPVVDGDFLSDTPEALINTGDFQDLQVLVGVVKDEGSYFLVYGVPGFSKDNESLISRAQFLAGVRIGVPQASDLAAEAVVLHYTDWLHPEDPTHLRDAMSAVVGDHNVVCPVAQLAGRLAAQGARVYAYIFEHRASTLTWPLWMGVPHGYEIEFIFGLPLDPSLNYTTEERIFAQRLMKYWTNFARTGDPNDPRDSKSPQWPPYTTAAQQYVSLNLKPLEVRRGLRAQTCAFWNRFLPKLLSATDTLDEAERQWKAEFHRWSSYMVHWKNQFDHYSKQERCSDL
Experiment: Inhibition of wild type mouse AChE expressed in HEK293 cells using ATCh as substrate
Assay type: cell-based
outcomeMeasure: pIC50
Scale explanation: pIC50 corresponds to minus log10 of a concentration expressed in moles per litre.

## Task Given the compound CC[N+](C)(CC)CCC[n+]1c(-c2ccccc2)c2cc(N)ccc2c2ccc(N)cc21 , what is its reported pIC50?
## Result 5.96

====

Target: Acetylcholinesterase (Mus musculus)
Assay: Inhibition of mouse recombinant AChE using acetylthiocholine iodide as substrate by Ellman's method
outcomeMeasure: log10 IC50 (log10 of the value in µM)
Short version: log10 scale, IC50, µM.

## Task Given the compound CCN(CC)CCNS(=O)(=O)c1ccc(F)c(F)c1 , what is its reported log10 IC50?
## Result 1.70

## Task Another compound: CCN(CC)CCNS(=O)(=O)Cc1ccccc1
## Result 2.14

## Task Another compound: CCN(CC)CCNS(=O)(=O)Cc1ccc(Cl)cc1
## Result 1.08

## Task Another compound: CCN(CC)CCNS(=O)(=O)Cc1ccc(F)cc1
## Result 1.60

## Task Another compound: CCN(CC)CCNS(=O)(=O)c1ccc([N+](=O)[O-])cc1
## Result 1.98

## Task Another compound: CCN(CC)CCNS(=O)(=O)c1ccc(Cl)cc1
## Result 1.94

## Task Another compound: CCN(CC)CCNS(=O)(=O)c1ccc(F)cc1
## Result 1.79

## Task Another compound: CCN(CC)CCNS(=O)(=O)c1ccc(Cl)cc1F
## Result 1.96

## Task Another compound: CCN(CC)CCNS(=O)(=O)c1ccccc1F
## Result 1.61

## Task Another compound: CCN(CC)CCNS(=O)(=O)c1cccc(Cl)c1
## Result 1.26

## Task Another compound: CCN(CC)CCNS(=O)(=O)Cc1ccc(C(F)(F)F)cc1
## Result 1.08

## Task Another compound: CCN(CC)CCNS(=O)(=O)c1ccc(C)cc1
## Result 2.13

## Task Another compound: CCN(CC)CCNS(=O)(=O)Cc1ccc(Cl)c(Cl)c1
## Result 0.85

Source: ChEMBL document CHEMBL3085720
